Test Target: urokinase-type plasminogen activator (uPA) (Homo sapiens)
Assay Protocol: Peptide probe cleavage assay (internally quenched MCA/DNP probes) with uPA
Assay type: biochemical
Condition Notes: 20 μM internally quenched peptide probe, 20 nM protease, 37° C.; — = below limit of quantification
Starred links: 1 amine or outer side, 2 acyl side, 3 side chain; linkers in the order of their positions; H or OH if unused. *: point of attachment. K(DNP) = O=C([C@H](CCCCNc1ccc([N+](=O)[O-])cc1[N+](=O)[O-])N[*:1])[*:2]; Mca = COc1ccc2c(CC(=O)*)cc(=O)oc2c1

>  <Substance>
(MCA)-Ser-Pro-Trp-Gly-Leu-Ser-Gly-Gly-Gly-Ser-Lys (DNP)-D-Arg (Mca-SPWGLSGGGS-{K(DNP)-dR}; SMILES COc1ccc2c(CC(=O)N[C@@H](CO)C(=O)N3CCC[C@H]3C(=O)N[C@@H](Cc3c[nH]c4ccccc34)C(=O)NCC(=O)N[C@@H](CC(C)C)C(=O)N[C@@H](CO)C(=O)NCC(=O)NCC(=O)NCC(=O)N[C@@H](CO)C(=O)N[C@@H](CCCCNc3ccc([N+](=O)[O-])cc3[N+](=O)[O-])C(=O)N[C@H](CCCNC(=N)N)C(=O)O)cc(=O)oc2c1) [CM PWGLSG]

>  <Test Target>
urokinase-type plasminogen activator (uPA) (Homo sapiens)

>  <Result Units>
pM/s

>  <Probe Cleavage (pM/s) uPA>
12.9

$$$$
